PROTOCOL NOTES: acid dissociation constant pKa determined by computation (ACD/Labs Software Package 1; Gaussian 16 DFT where not calculable)
MEASUREMENT PARAMETERS: acid generated from photoacid generator B
// boundary case: Difference between acid dissociation constant a1 and acid dissociation constant a2 equal to 7 maps to not fulfilled; strictly smaller maps to fulfilled

For orientation, consider the following solved cases.
>  <COMPOUND>
O=C(NS(=O)(=O)C(F)(F)C(F)(F)C(F)(F)S(=O)(=O)NS(=O)(=O)C(F)(F)F)c1cc(C(F)(F)F)cc(C(F)(F)F)c1 [B-24]

>  <CLASS>
not fulfilled

$$$$
>  <COMPOUND>
O=C(CC(F)(F)F)NS(=O)(=O)C(F)(F)C(F)(F)C(F)(F)S(=O)(=O)NS(=O)(=O)C(F)(F)F [B-22]

>  <CLASS>
not fulfilled

$$$$
>  <COMPOUND>
O=C(O)C(F)(F)C(F)(F)C(F)(F)C(=O)OC12CC3CC(CC(COC(=O)C(F)(F)S(=O)(=O)O)(C3)C1)C2 [B-3]

>  <CLASS>
fulfilled

$$$$
>  <COMPOUND>
O=C(OCCCS(=O)(=O)O)C(F)(F)S(=O)(=O)O [B-6]

>  <CLASS>
fulfilled

$$$$
>  <COMPOUND>
CC1(C)C2CCC1(CS(=O)(=O)NC(=O)C(F)(F)C(F)(F)C(F)(F)F)C(OC(=O)C(F)S(=O)(=O)O)C2 (centres unmarked) [B-8]

>  <CLASS>
fulfilled

$$$$

Could you please tell me whether Difference between acid dissociation constant a1 and acid dissociation constant a2 recorded for O=C(O)CCCOC(=O)C(CS(=O)(=O)O)C(F)(F)F (centres unmarked) [B-14] is less than 7? fulfilled

In plain terms, does O=C(O)C1CCCCC1C(=O)OCC(F)C(F)(F)S(=O)(=O)O (centres unmarked) [B-17] come in under 7 for Difference between acid dissociation constant a1 and acid dissociation constant a2? not fulfilled

Find out if reported Difference between acid dissociation constant a1 and acid dissociation constant a2 for O=C(O)N1CCN(S(=O)(=O)C(F)(F)C(F)(F)C(F)(F)S(=O)(=O)NS(=O)(=O)C(F)(F)F)CC1 [B-13] is less than 7 not fulfilled

Threshold test, Difference between acid dissociation constant a1 and acid dissociation constant a2 < 7: O=S(=O)(O)NCCOC1CCCC(C(F)(F)S(=O)(=O)O)C1 (centres unmarked) [B-18] fulfilled

Item CS(=O)(=O)NC(=O)C(F)(F)C(F)(F)C(F)(F)C(=O)OCC(F)S(=O)(=O)O (centres unmarked) [B-5] : Difference between acid dissociation constant a1 and acid dissociation constant a2 beneath 7, strictly? fulfilled

Problem: For the compound O=C(COC(=O)C(F)(F)S(=O)(=O)O)NC(=O)C(F)(F)F [B-4] , is Difference between acid dissociation constant a1 and acid dissociation constant a2 under 7? not fulfilled
